- target-or-system: Neuraminidase (Influenza A virus (A/Puerto Rico/8/1934(H1N1)), UniProt P03468)
- Sequence (P03468 whole entry): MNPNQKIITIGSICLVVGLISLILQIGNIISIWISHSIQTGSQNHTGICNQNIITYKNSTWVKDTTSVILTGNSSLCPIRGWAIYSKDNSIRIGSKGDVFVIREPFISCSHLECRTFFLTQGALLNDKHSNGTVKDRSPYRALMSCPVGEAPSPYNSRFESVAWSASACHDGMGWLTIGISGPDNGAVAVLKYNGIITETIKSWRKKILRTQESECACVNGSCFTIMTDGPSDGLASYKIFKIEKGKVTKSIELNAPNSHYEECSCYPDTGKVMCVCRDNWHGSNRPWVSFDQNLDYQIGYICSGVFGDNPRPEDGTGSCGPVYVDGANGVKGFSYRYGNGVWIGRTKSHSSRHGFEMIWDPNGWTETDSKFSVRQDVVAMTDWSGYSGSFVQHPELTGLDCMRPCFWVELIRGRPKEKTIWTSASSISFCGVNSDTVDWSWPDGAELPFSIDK
pIC50: −log10 of the molar value.
Measured pIC50 by item
quantity: pIC50

In [3]: df
Out[3]:
                                   molecule  recorded_number
0           O=c1cc(-c2cccc(Cl)c2)oc2ccccc12             4.49
1  COc1ccc(-c2cc(=O)c3ccccc3o2)cc1 [4'-METHOXYFLAVONE]             5.06
2           COc1cccc(-c2cc(=O)c3ccccc3o2)c1             4.97
3           O=c1cc(-c2ccc(Cl)cc2)oc2ccccc12             4.56
